Assay Notes: in vitro
Measurement Parameters: rat, htc cells
Measure Name: cytotoxicity (%)

>  <Smiles Structure>
C[C@]12CCC(=O)C=C1CC[C@@H]1[C@@H]2[C@@H](O)C[C@@]2(C)[C@H]1CC[C@]2(O)C(=O)COS(C)(=O)=O

>  <Reported>
20

$$$$

====

Assay Notes: cell toxicity in HTC cells (protein content, cell number, trypan blue exclusion)
Measurement Parameters: rat

>  <Molecule>
C[C@]12CCC(=O)C=C1CC[C@@H]1[C@@H]2[C@@H](O)C[C@@]2(C)[C@H]1CC[C@]2(O)C(=O)COS(C)(=O)=O [CM]

>  <cytotoxicity at 13 µM (%)>
12

$$$$

====

Assay Notes: cell toxicity in HTC cells (protein content, cell number, trypan blue exclusion)
Measurement Parameters: rat

>  <Smiles Structure>
C[C@]12CCC(=O)C=C1CC[C@@H]1[C@@H]2[C@@H](O)C[C@@]2(C)[C@H]1CC[C@]2(O)C(=O)COS(C)(=O)=O

>  <viability>
93 to 94%

$$$$

====

Measured On: dexamethasone induction of TAT in HTC cells (Rattus norvegicus)
Construct: endogenous in cells
Sequence (P06536 1-795): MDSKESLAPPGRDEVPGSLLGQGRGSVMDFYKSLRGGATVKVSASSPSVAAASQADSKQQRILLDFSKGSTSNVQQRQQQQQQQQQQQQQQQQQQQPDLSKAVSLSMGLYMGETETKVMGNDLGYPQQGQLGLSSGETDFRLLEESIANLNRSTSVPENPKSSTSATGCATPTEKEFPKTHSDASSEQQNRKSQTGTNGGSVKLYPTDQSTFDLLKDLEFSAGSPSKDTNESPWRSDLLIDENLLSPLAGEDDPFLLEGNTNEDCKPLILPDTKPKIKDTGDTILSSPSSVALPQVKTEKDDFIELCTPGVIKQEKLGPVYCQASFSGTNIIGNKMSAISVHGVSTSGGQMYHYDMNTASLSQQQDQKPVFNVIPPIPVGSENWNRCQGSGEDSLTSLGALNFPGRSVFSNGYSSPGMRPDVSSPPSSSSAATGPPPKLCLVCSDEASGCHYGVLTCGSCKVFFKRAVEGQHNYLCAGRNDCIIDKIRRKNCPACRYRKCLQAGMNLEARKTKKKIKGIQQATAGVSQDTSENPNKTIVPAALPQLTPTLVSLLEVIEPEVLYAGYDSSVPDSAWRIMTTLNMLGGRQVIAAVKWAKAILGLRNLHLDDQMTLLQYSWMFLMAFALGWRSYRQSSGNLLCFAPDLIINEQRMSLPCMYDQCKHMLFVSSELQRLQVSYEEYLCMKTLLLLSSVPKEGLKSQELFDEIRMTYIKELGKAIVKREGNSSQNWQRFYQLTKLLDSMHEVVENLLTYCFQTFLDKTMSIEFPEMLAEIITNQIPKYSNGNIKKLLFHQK
Assay Notes: inhibition of dexamethasone induction of TAT activity in whole HTC cells

>  <Smiles Structure>
C[C@]12CCC(=O)C=C1CC[C@@H]1[C@@H]2[C@@H](O)C[C@@]2(C)[C@H]1CC[C@]2(O)C(=O)COS(C)(=O)=O

>  <Ki>
~0.1 µM

$$$$
